- Tested on: BJ
- procedure text: Antiproliferative activity against human BJ cells after 72 hrs by CelTiter-Glo assay
- Assay type: cell-based
pEC50: −log10 of the molar value.
pEC50 values for the compounds below.

Below: 2 compounds and their reported pEC50.
> print(dat)
                               input.smiles  attribute.measured  observed.value
1  COc1ccc(-c2cc(=O)c3c(OC)cc(OC)cc3n2S(=O)(=O)c2ccc(Cl)cc2)cc1               pEC50          < 4.46
2  COc1ccc(-c2cc(=O)c3c(OC)cc(OC)cc3n2S(=O)(=O)c2cccc([N+](=O)[O-])c2)cc1               pEC50          < 4.40

Q: Fill in the blank: the reported pEC50 of `CN(C)C(=O)c1cc2cnc(Nc3ccc(N4CCNCC4)cn3)nc2n1C1CCCC1` is ____.
Result: < 4.18

Q: Fill in the blank: the reported pEC50 of `COC(=O)c1cc(=O)c2cc(NC(=O)Nc3cc(OC)c(OC)c(OC)c3)ccc2[nH]1` is ____.
Result: < 4.06

====

- Tested on: BJ
- procedure text: Antiproliferative activity against human BJ cells after 72 hrs by CelTiter-Glo assay
- Format: cell-based
pEC50: −log10 of the molar value.
attribute measured: pEC50

> print(dat)
                               input.smiles  attribute.measured  observed.value
1  COc1ccc(-c2cc(=O)c3c(OC)cc(OC)cc3n2S(=O)(=O)c2ccc(C#N)cc2)cc1               pEC50          < 4.76
2        COC(=O)c1cc(=O)c2c(OC)cc(OC)cc2n1C               pEC50          < 4.42
3      COC(=O)c1cc(=O)c2c(OC)cc(OC)cc2[nH]1               pEC50          < 4.46
4  COc1ccc(-c2c(Cl)c(=O)c3c(OC)cc(OC)cc3n2S(=O)(=O)c2ccc(OC)cc2)cc1               pEC50            4.05
5      O=c1c(-c2ccc(O)cc2)coc2cc(O)cc(O)c12               pEC50          < 4.06

Q: Fill in the blank: the reported pEC50 of `COc1cc(OC)c2c(=O)cc(C(=O)Nc3ccc4oc(-c5ccc(F)cc5)nc4c3)[nH]c2c1` is ____.
Result: < 4.43

Q: Fill in the blank: the reported pEC50 of `COc1ccc(-c2cc(=O)c3c(OC)cc(OC)cc3n2S(=O)(=O)c2ccc([N+](=O)[O-])cc2)cc1` is ____.
Result: < 4.53

====

pEC50 values for the compounds below.
- Tested on: BJ
- procedure text: Antiproliferative activity against human BJ cells after 72 hrs by CelTiter-Glo assay
- Assay type: cell-based
pEC50: −log10 of the molar value.

Below: 10 compounds and their reported pEC50.
> print(dat)
                                input.smiles  observed.value
 1  COc1cc(OC)c2c(=O)cc(C(=O)Nc3ccc(Oc4ccc(F)cc4)cc3)[nH]c2c1          < 4.30
 2  COc1cc(OC)c2c(=O)cc(C(=O)N3CCN(C(=O)OC(C)(C)C)CC3)[nH]c2c1            4.86
 3  O=c1cc(-c2ccc(O)cc2)oc2c([C@@H]3O[C@H](CO)[C@@H](O)[C@H](O)[C@H]3O)c(O)cc(O)c12          < 4.06
 4  C=CCNC(=O)n1c(-c2ccc(OC)cc2)cc(=O)c2c(OC)cc(OC)cc21            4.13
 5  COc1ccc(-c2cc(=O)c3c(OC)cc(OC)cc3n2S(=O)(=O)c2ccc(Br)s2)cc1          < 4.32
 6  COc1ccc(-c2cc(=O)c3c(OC)cc(OC)cc3n2S(=O)(=O)c2ccc(OC)cc2)cc1          < 4.08
 7  COc1ccc(Oc2ccc(C(F)(F)F)cc2NC(=O)c2cc(=O)c3c(OC)cc(OC)cc3[nH]2)cc1          < 4.17
 8  COc1cc(OC)c2c(=O)cc(C(=O)Nc3cccc(-n4ccnc4)c3)[nH]c2c1          < 4.79
 9  COC(=O)c1cc(=O)c2c(OC)cc(OC)cc2n1S(=O)(=O)c1ccc(C)cc1            3.86
10  COc1cc(OC)c2c(=O)cc(C(=O)Nc3ccc(Oc4cccnc4)cc3)[nH]c2c1          < 4.49

Q: Quick check: pEC50 on BJ, item `COc1cc(OC)c2c(=O)cc(C(=O)Nc3ccc(N4CCOCC4)cc3)[nH]c2c1` ?
Result: < 4.43

Q: Quick check: pEC50 on BJ, item `COC(=O)c1cc(=O)c2cc(NC(=O)Nc3ccc(Cl)c(C(F)(F)F)c3)ccc2[nH]1` ?
Result: < 4.90

Q: Quick check: pEC50 on BJ, item `COc1ccc(-c2cc(=O)c3c(OC)cc(OC)cc3n2S(=O)(=O)c2ccc(Br)cc2)cc1` ?
Result: < 4.06

Q: Quick check: pEC50 on BJ, item `COc1ccc(-c2cc(=O)c3c(OC)cc(OC)cc3n2S(=O)(=O)c2ccc(C)c([N+](=O)[O-])c2)cc1` ?
Result: < 4.29
